experiment: solvent given as SMILES; settings: in CCOC(C)=O
# binning rule on absorption maximum: low value: < 400 nm; medium value: ≥ 400 nm and < 500 nm; high value: ≥ 500 nm

Here are 10 molecules together with their reported answers.
{"columns": ["structure", "label"],
 "data": [
  ["Cc1ccc(C2=C3C=C(I)C=[N+]3[B-](F)(F)n3cccc32)cc1", "high value"],
  ["CCC1=C(C)C2=C(C)c3c(C)c(CC)c(C)n3[B-](F)(F)[N+]2=C1C", "high value"],
  ["CCn1c2ccccc2c2cc(-c3cc(-c4ccc5c(c4)c4ccccc4n5CC)nc(OC)n3)ccc21", "low value"],
  ["COc1ccc(N(c2ccc(OC)cc2)c2ccc(-c3ccc4c(c3)C(=O)c3ccccc3C4=O)cc2)cc1", "medium value"],
  ["[C-]#[N+]c1ccc(-c2ccc(N(C)C)cc2)cc1", "low value"],
  ["N#CSC1=CC2=C(c3ccccc3)c3cc(SC#N)c(N4CCOCC4)n3[B-](F)(F)[N+]2=C1N1CCOCC1", "high value"],
  ["CCn1c2ccccc2c2cc(-c3cc(-c4ccc5c(c4)c4ccccc4n5CC)nc(-c4ccc(C#N)cc4)n3)ccc21", "low value"],
  ["COc1ccc2c3c(cccc13)C(=O)c1ccccc1-2", "medium value"],
  ["CCCCCCOc1ccc2oc3c(c2c1)=CC1=C(c2ccccc2C)c2cc4c5cc(OCCCCCC)ccc5oc4n2[B-](F)(F)[N+]=31", "high value"],
  ["CCCCCCCCC1(CCCCCCCC)c2cc(-c3ccc(C(F)(F)F)cc3)ccc2-c2ccc(N(c3ccc(-n4c5ccccc5c5ccccc54)cc3)c3ccc4c(c3)C(CCCCCCCC)(CCCCCCCC)c3cc(-c5ccc(C(F)(F)F)cc5)ccc3-4)cc21", "low value"]
]}

**Query** Category of COc1cccc2oc(-c3cc4c(OC)cccc4oc3=O)cc12 :
**Result** low value

**Query** Category of O=C1c2ccccc2C(=O)c2cc(-c3ccc(N(c4ccccc4)c4ccccc4)cc3)ccc21 :
**Result** medium value
